# Test system: MDA-MB-231
# Test: Cell viability after 4 hours (Cell Titer Glo), MDA-MB-231
# Format: cell-based, human
# Settings: 4 h incubation; read-out: Activities [μM] MDA-MB-231 (p47)
Property name: IC50 (µM)
Form entry: value (µM) — number only.

stdin: Endpoint output: IC50 of KFAKFAK KFAKFAK KFAK [Phor18] . Value?
stdout: 18.9

---

# Tested on: SKOV-3
# Test: Cell viability after 4 hours (Cell Titer Glo), SKOV-3
# Assay type: cell-based, human
# Settings: 4 h incubation; read-out: Activities [μM] SKOV-3 (p35)
Property name: IC50 (µM)
// return numeric value only (unit: µM, not printed)

stdin: Suppose we examine the substance KFAKFAK KFAKFAK KFAK [Phor18] ; what IC50 value has been reported?
stdout: 21.7
